Tested on: Ubiquitin carboxyl-terminal hydrolase 8 (Homo sapiens) (UniProt P40818)
Sequence (P40818 whole entry, looked up): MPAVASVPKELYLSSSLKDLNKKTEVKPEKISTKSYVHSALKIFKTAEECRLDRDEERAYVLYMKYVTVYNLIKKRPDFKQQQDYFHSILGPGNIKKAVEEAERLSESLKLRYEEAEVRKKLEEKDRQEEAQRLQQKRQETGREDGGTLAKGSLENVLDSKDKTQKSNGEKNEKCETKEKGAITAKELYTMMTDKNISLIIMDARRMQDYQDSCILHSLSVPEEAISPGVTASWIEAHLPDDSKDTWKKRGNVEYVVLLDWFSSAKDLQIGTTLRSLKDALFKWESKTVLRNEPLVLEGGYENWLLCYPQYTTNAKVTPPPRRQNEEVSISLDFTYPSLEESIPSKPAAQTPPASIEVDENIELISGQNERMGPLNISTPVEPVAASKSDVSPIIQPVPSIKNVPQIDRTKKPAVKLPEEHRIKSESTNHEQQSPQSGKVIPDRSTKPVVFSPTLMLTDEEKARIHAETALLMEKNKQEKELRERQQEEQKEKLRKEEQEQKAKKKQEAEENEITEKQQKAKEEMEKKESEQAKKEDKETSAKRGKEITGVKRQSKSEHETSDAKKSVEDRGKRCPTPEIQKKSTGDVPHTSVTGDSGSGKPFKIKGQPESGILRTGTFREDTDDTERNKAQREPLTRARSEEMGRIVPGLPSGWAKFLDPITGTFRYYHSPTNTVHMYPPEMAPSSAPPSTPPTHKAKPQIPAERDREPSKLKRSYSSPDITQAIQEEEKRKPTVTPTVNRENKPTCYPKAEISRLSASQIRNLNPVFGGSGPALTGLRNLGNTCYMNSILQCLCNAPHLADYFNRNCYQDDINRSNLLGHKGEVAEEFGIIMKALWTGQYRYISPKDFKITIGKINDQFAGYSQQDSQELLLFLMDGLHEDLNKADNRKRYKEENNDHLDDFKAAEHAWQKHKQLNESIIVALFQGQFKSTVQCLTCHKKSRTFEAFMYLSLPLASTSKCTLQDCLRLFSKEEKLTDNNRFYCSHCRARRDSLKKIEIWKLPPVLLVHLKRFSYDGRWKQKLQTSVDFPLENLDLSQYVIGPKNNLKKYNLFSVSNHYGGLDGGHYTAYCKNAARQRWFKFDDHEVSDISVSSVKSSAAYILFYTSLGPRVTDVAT
Assay details: Ubiquitin-specific protease 8 inhibitors, concentration-effect, biochemical, validation of initial actives (AID 1645862);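 note: potency reflects inhibition of USP8 cleavage of a ubiquitin rhodamine substrate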
Experimental conditions: recombinant USP8 deubiquitinase activity assay
Activity calls are given as the source filed them. The rule behind the calls is not given here.
Possible outcomes: 1.0 for active, 0.0 for inactive

Compound: O=C(Cn1c(COc2ccccc2)nc2ccccc21)Nc1ccc(N2CCOCC2)cc1
Label value: 0.0
--
Compound: CCOc1ccc(NC(=O)Cn2c(=O)n(CCC(=O)NCc3ccco3)c(=O)c3ccccc32)cc1
Label value: 0.0
--
Compound: COc1ccc(NC2c3ccccc3C(=O)N2c2ccccn2)cc1 (centres undefined)
Label value: 0.0
--
Compound: COc1ccc(NC(=O)c2[nH]nc3c2COc2ccccc2-3)c(OC)c1
Label value: 0.0
--
Compound: COc1ccccc1CNC(=O)CCCCn1c(=O)c2ccccc2n(Cc2ccc(C)cc2)c1=O
Label value: 0.0
--
Compound: O=C(CCCn1c(=O)c2cc(Cl)ccc2n(CC(=O)Nc2cccc(F)c2)c1=O)NCc1ccco1
Label value: 0.0
--
Compound: Cc1nc2c(nnn2C[C@H]2CCCN2C(=O)c2ccc(F)cc2)c(=O)[nH]1
Label value: 0.0
--
Compound: N#Cc1cccc(NC(=O)Cn2cccc2-c2nc(-c3ccccc3)no2)c1
Label value: 0.0
--
Compound: Nc1ccc2oc(-c3cccc(-c4nc5cc(N)ccc5o4)n3)nc2c1
Label value: 1.0
--
Compound: O=C(Nc1ccccc1C(F)(F)F)c1cccc(S(=O)(=O)Nc2cc(C(F)(F)F)ccc2Cl)c1
Label value: 0.0
--
Compound: Cc1ccc(Cn2c(=O)c3ncccc3n(CC(=O)NCc3ccc(F)cc3)c2=O)cc1
Label value: 0.0
--
Compound: Cc1nc(C(=O)NC2(O)C(=O)c3ccccc3C2=O)cs1
Label value: 1.0
--
Compound: O=C(Nc1cccc(Br)c1)c1cc(-c2cccnc2)n[nH]1
Label value: 1.0
--
Compound: O=C(c1ccc2occc2c1)N1CCC(S(=O)(=O)c2ccc(-c3ccco3)cc2)CC1
Label value: 0.0
--
Compound: CC(=O)[C@H]1c2c(c(O)c3c(O)cccc3c2-c2c3c(c(O)c4c(O)cccc24)C(=O)C[C@](C)(O)[C@H]3C(C)=O)C(=O)C[C@]1(C)O
Label value: 1.0
--
Compound: O=C(c1[nH]nc2c1COc1ccccc1-2)N1CCN(c2ccccn2)CC1
Label value: 0.0
--
Compound: O=C1c2c(O)c(Cl)cc3c2[C@@]2(Oc4ccc(O)c5c4[C@]3(O2)[C@@H]2O[C@@H]2C5=O)[C@@H]2O[C@H]12
Label value: 1.0
--
Compound: COc1ccc(NC(=O)Cn2c(=O)n(CCCC(=O)NCCc3ccc(OC)c(OC)c3)c(=O)c3ccccc32)cc1Cl
Label value: 0.0
--
Compound: Cc1ccc(-c2nc3c(c(SCC(=O)c4ccccc4)n2)COC(C)(C)C3)cc1
Label value: 0.0
